test system: MS2 coat protein; test: apparent KD of MS2 coat protein; designed switch direction (-1 OFF switch, 1 ON switch): 1; higher = weaker reporter binding; details: input ligand: none
Field: apparent KD of MS2 coat protein. Provide a value for each of the sequences that follow.

Recorded apparent KD of MS2 coat protein for GCUCGGCUGAUGGCCCACAUGAGGAUCACCCAUGUGAGUGGGCAGGAUAUCUAGAUUAAGGAUGUAGAGAAGGGCCUGCCGAGC [SameState NG3 #36] (Eterna round: R96, puzzle: Same State NG 3) on MS2 coat protein was 559 nM

Short answer on MS2 coat protein for GCCAUCCAAUGAGGAUAUGGCACCGUUUCGGUGCCAGAAGGCAUGUCAAUUGACAUGAGGAUCACCCAUGUAUUAUGGAUGGCA [JL Fiskers NG1ss - 33 mod 2] (Eterna round: R96, puzzle: Same State NG 1) , apparent KD of MS2 coat protein: 1390 nM

Value (apparent KD of MS2 coat protein, MS2 coat protein) for record GGAUGAUUAACAGGAUAUCAUUUGUAAAUUGGUUGAGAAGGGUUAAUGAUUUACACGACCUGUUACAUGAGGAUCACCCAUGUU [SameState NG1 #2] (Eterna round: R96, puzzle: Same State NG 1) = 47.2 nM

Summary line: AAUUAAGAUCAAGGAUAUCACGUCGUUUAGACGUGAGAAGGUGAUCAUAACAUGAGGAUCACCCAUGUAUUACAUGAAUUAAUU [SSNG1/2-B3] (Eterna round: R96, puzzle: Same State NG 1) , MS2 coat protein, reported apparent KD of MS2 coat protein = 370 nM

Value sought: apparent KD of MS2 coat protein, system MS2 coat protein, item UUCACCUUAUUUUACAUGAGGAUCACCCAUGUUUUCCCUACGUAGGAUAUCGAUGCUUGAUUGUUCGAGAAGGACGAUGUAAGU [JR_SSND3_Sub055] (Eterna round: R96, puzzle: Same State NG 3) . Result: 33.3 nM

Note to self: apparent KD of MS2 coat protein of GGACGGUUAUCAGGAUAUGCGCUGAGCAUCACGGCUACAUGAGGAUCACCCAUGUCUAGCUUCUCGCAGAAGGGAUAGCCUCCU [Eternabot solution 36] (Eterna round: R96, puzzle: Same State NG 2) with MS2 coat protein was 15 nM

Hey, MS2 coat protein data for UGGCUCAGACUAGGAUAUGAUCAUGGCGCUUCGGCGCAUACAUGAGGAUCACCCAUGUAAAGUGAUCAGAAGGAGUCUGAGCCA [SSNG2/7-C2] (Eterna round: R96, puzzle: Same State NG 2) : apparent KD of MS2 coat protein came out at 15.8 nM

// assay MS2 coat protein, entry UGGCUGAGUCGAGGAUAUUAUGGAUCCUCUAAUACAUGAGGAUCACCCAUGUAAUUAAUUAUACAUGAGAAGGUGACUCAGCCA [SSNG2/12-B2] (Eterna round: R96, puzzle: Same State NG 2) , apparent KD of MS2 coat protein value = 342 nM
